- Test system: in-situ perfused rat liver
- PROTOCOL_DETAILS: In-situ rat liver perfusion bolus studies, moments and dispersion model analysis (Example 3)
- Assay type: in vitro ADME, Sprague-Dawley rats
- EXPERIMENTAL_PARAMETERS: two-compartment dispersion model fitting, n = 3, Mean S.E.; 2% BSA perfusate
PROPERTY_MEASURED: Influx rate coefficient (k1) (s⁻¹)
Numbers only, in s⁻¹.

| STRUCTURE_AS_SMILES | STUDY_SYSTEM | MEASURED_RESULT |
| --- | --- | --- |
| CCCC(=O)Oc1ccc(-c2ccc(F)cc2F)cc1C(=O)O | in-situ perfused rat liver | 0.41 |
| CC(=O)Oc1ccc(-c2ccc(F)cc2F)cc1C(=O)O | in-situ perfused rat liver | 1.20 |
| CCCCC(=O)Oc1ccc(-c2ccc(F)cc2F)cc1C(=O)O | in-situ perfused rat liver | 0.51 |

Okay, next one:
Task: // Influx rate coefficient (k1) lookup, key: CCCCCC(=O)Oc1ccc(-c2ccc(F)cc2F)cc1C(=O)O
Output: 0.63

====

- PROTOCOL_DETAILS: In vitro non-enzymatic hydrolysis in Krebs-Henseleit buffer
- Assay type: physicochemical
- EXPERIMENTAL_PARAMETERS: Krebs-Henseleit buffer 0% BSA, pH 7.4, 25° C.; n=5; U = Undetectable
PROPERTY_MEASURED: Hydrolysis rate constant (k) (hour^1)
Numbers only, in hour^1.

Solved entries:
| COMPOUND | U | Hydrolysis rate constant (k) |
| --- | --- | --- |
| CCCCCCC(=O)Oc1ccccc1C(=O)O [Compound C7SA, n-heptanoylsalicylic acid] | hour^1 | 0.0052 |
| CCCCCCCC(=O)Oc1ccccc1C(=O)O [Compound C8SA, n-octanoylsalicylic acid] | hour^1 | 0.0051 |
| CCCCCC(=O)Oc1ccccc1C(=O)O [Compound C6SA, n-hexanoylsalicylic acid] | hour^1 | 0.0059 |

Okay, next one:
Task: // Hydrolysis rate constant (k) lookup, key: CC(=O)Oc1ccc(-c2ccc(F)cc2F)cc1C(=O)O [Compound C2D, acetyldiflunisal]
Output: 0.0378

====

Please go through the items and note down their CV^2 (normalized variance).
- Tested on: in-situ perfused rat liver
- PROTOCOL_DETAILS: In-situ rat liver perfusion bolus studies, moments and dispersion model analysis (Example 3)
- Format: in vitro ADME, Sprague-Dawley rats
- EXPERIMENTAL_PARAMETERS: moments analysis, bolus, n = 3, Mean S.E.; 2% BSA perfusate, 30 mL/min
Numbers only.

Solved entries:
| COMPOUND | CV^2 (normalized variance) |
| --- | --- |
| CCCCC(=O)Oc1ccc(-c2ccc(F)cc2F)cc1C(=O)O | 1.02 |
| CCCC(=O)Oc1ccc(-c2ccc(F)cc2F)cc1C(=O)O | 1.01 |
| O=C(O)c1cc(-c2ccc(F)cc2F)ccc1O [DF, reference compound] | 0.99 |
| CC(=O)Oc1ccc(-c2ccc(F)cc2F)cc1C(=O)O | 0.70 |

Task: // CV^2 (normalized variance) lookup, key: CCCCCC(=O)Oc1ccc(-c2ccc(F)cc2F)cc1C(=O)O
Output: 1.15

====

- Tested on: in-situ perfused rat liver
- PROTOCOL_DETAILS: In-situ rat liver perfusion bolus studies, moments and dispersion model analysis (Example 3)
- Type: in vitro ADME, Sprague-Dawley rats
- EXPERIMENTAL_PARAMETERS: two-compartment dispersion model fitting, n = 3, Mean S.E.; 2% BSA perfusate
PROPERTY_MEASURED: Elimination rate coefficient (kel) (s⁻¹)
Give bare numbers, in s⁻¹.

Each of the following entries comes with a recorded value; kindly state Elimination rate coefficient (kel) for each.
1. CC(=O)Oc1ccc(-c2ccc(F)cc2F)cc1C(=O)O
2. CCCC(=O)Oc1ccc(-c2ccc(F)cc2F)cc1C(=O)O
3. O=C(O)c1cc(-c2ccc(F)cc2F)ccc1O [DF, reference compound]
4. CCCCC(=O)Oc1ccc(-c2ccc(F)cc2F)cc1C(=O)O

Output:
1: 0.18; 2: 0.16; 3: 0.06; 4: 0.18

Task: What value of Elimination rate coefficient (kel) on in-situ perfused rat liver does CCCCCC(=O)Oc1ccc(-c2ccc(F)cc2F)cc1C(=O)O have?
Output: 0.15

Cited source for all entries: patent US6593365B1
